target: beta-klotho; experiment: cell-based or functional assay
Here the recorded EC50, ELK-luciferase assay is given for each entry.
Expressed in nM, but write only the number.

# binder, EC50, ELK-luciferase assay [nM]
data = [
    ("dually PEGylated FGF21 mutant E37C, R175C (ligand, 20 kDa methoxy-PEG-maleimide on Cys 37 and on Cys 175) MHPIPDSSPLLQFGGQVRQRYLYTDDAQQTEAHLEIRCDGTVGGAADQSPESLLQLKALKPGVIQILGVKTSRFLCQRPDGALYGSLHFDPEACSFRELLLEDGYNVYQSEAHGLPLHLPGNKSPHRDPAPRGPARFLPLPGLPPAPPEPPGILAPQPPDVGSSDPLSMVGPSQGCSPSYAS", 50),
]

Query string: Reported EC50, ELK-luciferase assay for dually PEGylated FGF21 mutant R77C, H125C (ligand, 20 kDa methoxy-PEG-maleimide on Cys 77 and on Cys 125) MHPIPDSSPLLQFGGQVRQRYLYTDDAQQTEAHLEIREDGTVGGAADQSPESLLQLKALKPGVIQILGVKTSRFLCQCPDGALYGSLHFDPEACSFRELLLEDGYNVYQSEAHGLPLHLPGNKSPCRDPAPRGPARFLPLPGLPPAPPEPPGILAPQPPDVGSSDPLSMVGPSQGRSPSYAS : what is it?
Result string: 30
